Numbers sourced from patent US20230250190A1.

# EC50 values compiled below
Target Desc: T1, T4 (Tn-MUC1) (PAPGSTAPPAHGVT(α-GalNAc)SAPDTRPAPG-OH)
T1 peptide: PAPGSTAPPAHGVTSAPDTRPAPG
Assay Explanation: glycopeptide array

INSERT INTO measurements (binder, val) VALUES
  ('194 (antibody, V domains shown) VH: QVQLVQSGAEVKKPGTSVKVSCTASGYTFTNYYIQWVRQAPGQGLEWLGVINPYDGSTDYAQKFQGRVTLTRDTSTTTVYMELSSLRSEDTAVYYCARDYMLGYVVFDFWGQGTLVTVSS', '0.1 µg/mL');

Lab note: next binder to report on.
-- ask Quick one: give measured EC50 for 33 (antibody, V domains shown) VH: QVQLVQSGAEVKKPGASVRVSCKASGYPFINYYIQWVRQAPGQGLEWMGVINPFDGSTNYAQKFQDRVTVTRDTSTSTVFMDLSSLRSEDTAVYYCARDNMIGYVLLDYWGQGTLVTVSS
-- reply 0.076 µg/mL
